- target system: Proteasome subunit beta (Trypanosoma cruzi) (UniProt O96673)
- Sequence (O96673 as listed by the source): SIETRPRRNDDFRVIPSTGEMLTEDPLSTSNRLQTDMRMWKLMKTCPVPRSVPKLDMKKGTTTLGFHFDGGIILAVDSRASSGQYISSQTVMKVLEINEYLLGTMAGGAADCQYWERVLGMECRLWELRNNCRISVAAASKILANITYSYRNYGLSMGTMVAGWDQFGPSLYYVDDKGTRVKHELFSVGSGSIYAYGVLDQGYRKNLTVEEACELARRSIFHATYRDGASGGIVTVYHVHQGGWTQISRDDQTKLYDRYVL
- assay name: Trypanosoma cruzi proteasome chymotrypsin-like activity (TcProtChymo) assay. Also: in the data most compounds retested in dose-response had high values.
- Type: functional
- Parameters: scale not given: direction of the effect not stated beside the values
- run parameters: 9.37 µM
observed property: Percent Effect (%)
# unit: % | format: bare number

Challenge: Tell us which Percent Effect value is on record for O=C(c1cccnc1)N1C[C@@H]2CC[C@H](C1)N(Cc1ncc[nH]1)C2
Response given: 11.4

Challenge: Tell us which Percent Effect value is on record for c1ccc(N2CCCC3(CCN(Cc4nccs4)C3)C2)nc1 (stereo unspecified)
Response given: 18.4

Challenge: Tell us which Percent Effect value is on record for COCCN1C[C@H]2[C@@H](C1)N(C(=O)COc1ccccc1)CC[C@H]2OC
Response given: 19.7

Challenge: Tell us which Percent Effect value is on record for Cc1nc(N(C)C)nc2c1COCC21CCN(CC2CC2)C1 (stereo unspecified)
Response given: 7.18

Challenge: Tell us which Percent Effect value is on record for Cn1ccnc1CN1CCC2(CC(=O)N(c3cncnc3)C2)C1 (stereo unspecified)
Response given: 21.2

Challenge: Tell us which Percent Effect value is on record for CCn1cc(CN2CCCN(C(=O)Cc3ccc(C)nc3)CC2)cn1
Response given: 5.09

Challenge: Tell us which Percent Effect value is on record for CC(C)(C)n1cc(C2=CCN(CCc3ccccc3)CC2)cn1
Response given: 14.7

Challenge: Tell us which Percent Effect value is on record for Cc1nn(C)c(N(C)C)c1CNC(C)Cc1c(F)cccc1F (stereo unspecified)
Response given: 7.89

Challenge: Tell us which Percent Effect value is on record for CCc1nnc(C(C)N2CCCN(C(=O)Oc3ccccc3)CC2)o1 (stereo unspecified)
Response given: 12.6

Challenge: Tell us which Percent Effect value is on record for COCCNC(=O)c1cn(C(C)(C)C)c2ncccc12
Response given: 11

Challenge: Tell us which Percent Effect value is on record for O=C1[C@H]2CN(Cc3cccs3)C[C@H]2CN1c1cncnc1
Response given: 9.65

Challenge: Tell us which Percent Effect value is on record for O=C(C1CC1)N1CCC2(CC1)OCCO2
Response given: 14.1

Challenge: Tell us which Percent Effect value is on record for CCOCC(O)CN1CCN(C(=O)Cc2ccccc2C)CC1 (stereo unspecified)
Response given: 8.69

Challenge: Tell us which Percent Effect value is on record for CC(C)=CCN1C(=O)[C@H]2CC[C@@H]1CN(Cc1cccnc1N)C2
Response given: 23.7

Challenge: Tell us which Percent Effect value is on record for CN(C)C(=O)COC[C@H]1CC[C@@H]2[C@@H](CCN2Cc2ccccn2)O1
Response given: 8.88

Challenge: Tell us which Percent Effect value is on record for c1ccc(CN2CC[C@H]3CO[C@H](CNc4ncccn4)[C@H]3C2)nc1
Response given: 9.74

Challenge: Tell us which Percent Effect value is on record for CN(C)C(=O)CN1C[C@@H]2CC[C@H](C1)N(C(=O)Cc1ccccc1Cl)C2
Response given: 9.16

Challenge: Tell us which Percent Effect value is on record for CCOCC(O)CN1CCN(C(=O)Cc2ccc(C)nc2)CC1 (stereo unspecified)
Response given: 15.9

Challenge: Tell us which Percent Effect value is on record for Cc1noc(C)c1CN1CCO[C@H]2CNC[C@H]21
Response given: 20

Challenge: Tell us which Percent Effect value is on record for CCS(=O)(=O)NC[C@]12COC[C@H]1CN(Cc1cc(C)on1)C2
Response given: 20.9

Challenge: Tell us which Percent Effect value is on record for CN1C(=O)C2(CCN(CC3CC3)CC2)c2ccccc21
Response given: 16.4

Challenge: Tell us which Percent Effect value is on record for Cc1noc(C)c1CN1CC[C@H]2C[C@@H](c3nccs3)O[C@@H]2C1
Response given: 18.1

Challenge: Tell us which Percent Effect value is on record for CN(C)C(=O)CN1CCN(C(=O)Cc2csc(-c3ncccn3)n2)CC1
Response given: 8.69

Challenge: Tell us which Percent Effect value is on record for c1ccc(CO[C@H]2CO[C@@]3(CCN(Cc4ccoc4)C3)C2)nc1
Response given: 10.2

Challenge: Tell us which Percent Effect value is on record for O=C(COc1cccc(F)c1)N1C[C@@H](O)[C@H](N2CCCC2)C1
Response given: 7.33

Challenge: Tell us which Percent Effect value is on record for COC[C@]12COC[C@H]1CN(Cc1cccnc1OC)C2
Response given: 18.7

Challenge: Tell us which Percent Effect value is on record for O=C(C1CCOC1)N1C[C@H]2CN(Cc3ccccn3)C[C@H]2C1 (stereo partly specified)
Response given: 16.2

Challenge: Tell us which Percent Effect value is on record for NC(=O)CN1CCCN(C(=O)Cc2ccc(F)c(Br)c2)CC1
Response given: 12.6

Challenge: Tell us which Percent Effect value is on record for Fc1cnc(N2CCO[C@H]3CN(CC4CCCC4)C[C@H]32)nc1
Response given: 3.93

Challenge: Tell us which Percent Effect value is on record for CN(C)c1nccc(N2CCO[C@H]3CN(Cc4ccsc4)C[C@H]32)n1
Response given: 19.9

Challenge: Tell us which Percent Effect value is on record for CCC(O)CN1CCN(C(=O)Cc2cc(Cl)ccc2OC)CC1 (stereo unspecified)
Response given: 4.04

Challenge: Tell us which Percent Effect value is on record for COc1cc(OC)c(C2SCC(=O)Nc3n[nH]cc32)cc1OC (stereo unspecified)
Response given: 9.11

Challenge: Tell us which Percent Effect value is on record for COc1ccc(C(=O)C2CCCN(Cc3ccc(C)o3)C2)c(OC)c1 (stereo unspecified)
Response given: 7.71

Challenge: Tell us which Percent Effect value is on record for O=C(N[C@H]1CN[C@H]2CCCO[C@H]21)c1ccno1
Response given: 6.76

Challenge: Tell us which Percent Effect value is on record for O=C(Cc1ccccc1)N1CCN(Cc2noc(C3CC3)n2)CC1
Response given: 12.9

Challenge: Tell us which Percent Effect value is on record for COc1ccc(C(=O)C2CCCN(CCCn3cccn3)C2)c(OC)c1 (stereo unspecified)
Response given: 7.71

Challenge: Tell us which Percent Effect value is on record for Cc1nc(CN2CCO[C@H]3[C@@H](OCc4ccccn4)CC[C@@H]32)cs1
Response given: 10.2

Challenge: Tell us which Percent Effect value is on record for CC[C@H]1NCCC[C@]12CCC(=O)N2Cc1ccncc1
Response given: -0.772

Challenge: Tell us which Percent Effect value is on record for C[C@@H]1CN(Cc2ccsc2)C[C@]12CCN(Cc1cccnc1)C2=O
Response given: -4.03

Challenge: Tell us which Percent Effect value is on record for CCN1CCC(c2cncc(N(C)C)n2)CC1
Response given: 13.5

Challenge: Tell us which Percent Effect value is on record for COCC(=O)N1C[C@@H]2OCCN(Cc3c(C)noc3C)[C@@H]2C1
Response given: 27.1

Challenge: Tell us which Percent Effect value is on record for CC(C)N1CCc2c(CN(C)Cc3ccco3)cncc2C1
Response given: 0.171

Challenge: Tell us which Percent Effect value is on record for O=C1C[C@H]2[C@H](CCN2Cc2ccccn2)N1CC1CC1
Response given: 12.4

Challenge: Tell us which Percent Effect value is on record for Cc1cccc(CN2C[C@@H]3CCCO[C@@H]3[C@H](NS(C)(=O)=O)C2)n1
Response given: 11.1

Challenge: Tell us which Percent Effect value is on record for CCN(Cc1cccnc1)CC1CCCO1 (stereo unspecified)
Response given: 1.77

Challenge: Tell us which Percent Effect value is on record for Cc1n[nH]c2c1C(c1ccc(O)c(Cl)c1)SCC(=O)N2 (stereo unspecified)
Response given: 5.18

----------
- target system: Tyrosyl-tRNA synthetase, putative (Trypanosoma cruzi (strain CL Brener)) (UniProt Q4DSP6)
- Sequence (Q4DSP6 as listed by the source): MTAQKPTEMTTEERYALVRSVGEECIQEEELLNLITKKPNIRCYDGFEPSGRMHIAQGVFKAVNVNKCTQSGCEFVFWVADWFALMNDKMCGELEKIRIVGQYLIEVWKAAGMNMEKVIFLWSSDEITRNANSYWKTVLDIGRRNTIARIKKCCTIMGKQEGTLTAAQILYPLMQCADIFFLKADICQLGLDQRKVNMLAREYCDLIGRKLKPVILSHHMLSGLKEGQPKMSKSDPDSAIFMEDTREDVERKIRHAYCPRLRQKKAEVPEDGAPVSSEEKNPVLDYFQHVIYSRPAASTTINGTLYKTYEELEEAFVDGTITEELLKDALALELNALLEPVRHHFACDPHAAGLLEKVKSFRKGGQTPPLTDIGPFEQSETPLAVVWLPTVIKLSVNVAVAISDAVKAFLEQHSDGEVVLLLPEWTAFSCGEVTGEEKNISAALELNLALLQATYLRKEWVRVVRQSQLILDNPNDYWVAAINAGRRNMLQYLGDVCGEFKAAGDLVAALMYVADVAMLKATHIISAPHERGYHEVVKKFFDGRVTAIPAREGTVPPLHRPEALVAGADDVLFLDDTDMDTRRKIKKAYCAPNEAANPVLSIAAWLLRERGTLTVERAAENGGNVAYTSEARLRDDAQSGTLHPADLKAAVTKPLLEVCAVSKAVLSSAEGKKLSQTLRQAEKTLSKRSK
- assay name: Trypanosoma cruzi tyrosyl tRNA synthetase (TcYRS) SOP
- Type: functional
- Set-up: scale not given: direction of the effect not stated beside the values
- run parameters: 30 µM
For each entry below, report its Percent Effect value.
# unit: % | format: bare number

Challenge: Given O=C1OCCC1N1CCN(C(=O)Cc2c[nH]c3ccccc23)CC1 (stereo unspecified) , report its Percent Effect on Tyrosyl-tRNA synthetase, putative (Trypanosoma cruzi (strain CL Brener)) (UniProt Q4DSP6).
Response given: 23.5

Challenge: Given c1ccc(OC[C@H]2CCC[C@]23CN(Cc2nccs2)CCO3)nc1 , report its Percent Effect on Tyrosyl-tRNA synthetase, putative (Trypanosoma cruzi (strain CL Brener)) (UniProt Q4DSP6).
Response given: 3.85

Challenge: Given CNC(=O)c1ccc2c(c1)C1(CCN(CC(C)C)CC1)C(=O)N2 , report its Percent Effect on Tyrosyl-tRNA synthetase, putative (Trypanosoma cruzi (strain CL Brener)) (UniProt Q4DSP6).
Response given: 11.1

Challenge: Given Cc1cccc(C(=O)N2C[C@@H]3OCCN(C(C)C)[C@@H]3C2)n1 , report its Percent Effect on Tyrosyl-tRNA synthetase, putative (Trypanosoma cruzi (strain CL Brener)) (UniProt Q4DSP6).
Response given: 2.5

Challenge: Given COCCN1C[C@@H]2[C@@H](OC)CCN(Cc3cccc(C)n3)[C@@H]2C1 , report its Percent Effect on Tyrosyl-tRNA synthetase, putative (Trypanosoma cruzi (strain CL Brener)) (UniProt Q4DSP6).
Response given: 13.6

Challenge: Given Cc1ccccc1CC(=O)N1CCN(C2CCOC2=O)CC1 (stereo unspecified) , report its Percent Effect on Tyrosyl-tRNA synthetase, putative (Trypanosoma cruzi (strain CL Brener)) (UniProt Q4DSP6).
Response given: 16.1

Challenge: Given CC(C)N1CCOCC2(CN(Cc3ccccn3)CCO2)C1 (stereo unspecified) , report its Percent Effect on Tyrosyl-tRNA synthetase, putative (Trypanosoma cruzi (strain CL Brener)) (UniProt Q4DSP6).
Response given: 3.85

Challenge: Given CCc1cnc(N2CC3(CCN(Cc4ccsc4)C3)C2)nc1 , report its Percent Effect on Tyrosyl-tRNA synthetase, putative (Trypanosoma cruzi (strain CL Brener)) (UniProt Q4DSP6).
Response given: 2.56

Challenge: Given Cc1cc(CN2CC[C@H]3C[C@H](C)O[C@@H]3C2)no1 , report its Percent Effect on Tyrosyl-tRNA synthetase, putative (Trypanosoma cruzi (strain CL Brener)) (UniProt Q4DSP6).
Response given: 17.9

Challenge: Given O=C1CC2(CCN(CC3CC3)C2)CN1c1cccnc1 (stereo unspecified) , report its Percent Effect on Tyrosyl-tRNA synthetase, putative (Trypanosoma cruzi (strain CL Brener)) (UniProt Q4DSP6).
Response given: 11.1

Challenge: Given COc1ccc(CN2C[C@@H]3OCCN(c4ncccn4)[C@@H]3C2)cc1 , report its Percent Effect on Tyrosyl-tRNA synthetase, putative (Trypanosoma cruzi (strain CL Brener)) (UniProt Q4DSP6).
Response given: -1.28
